# test: chemical recovery into PDMS from spiked human plasma; higher = better extraction
# conditionsUsed: pooled human plasma; extraction method: PES with PDMS; equilibration time (d): 3
endpoint: chemical recovery into PDMS (%)
The answer is to be given in %; state only the numeric part.

// solved cases for chemical recovery into PDMS follow
Nc1ccccc1Br :: 9.84
N#Cc1nn(-c2c(Cl)cc(C(F)(F)F)cc2Cl)c(N)c1S(=O)(=O)C(F)(F)F :: 32.2
CCNc1nc(NC(C)(C)C)nc(SC)n1 :: 21.5
COC(=O)N(C(=O)N1CO[C@@]2(C(=O)OC)Cc3cc(Cl)ccc3C2=N1)c1ccc(OC(F)(F)F)cc1 :: 52
COC(=O)[C@H](c1ccccc1Cl)N1CCc2sccc2C1 :: 25.5
C#C[C@]1(OC(C)=O)CC[C@H]2[C@@H]3CCC4=CC(=NO)CC[C@@H]4[C@H]3CC[C@@]21CC (mixture of isomers) [Norgestimate] :: 9.35
CCCCCCCCCCCCCCN(C)C :: 0.0161
Oc1cc(Cl)ccc1Oc1ccc(Cl)cc1Cl :: 21

Quick check: chemical recovery into PDMS of `CC(C)(C)c1ccc(C(=O)CCCN2CCC(OC(c3ccccc3)c3ccccc3)CC2)cc1` ? 0.712

# get_value(readout='chemical recovery into PDMS', item= `c1ccc2sc(NC3CCCCC3)nc2c1` ) 34

----------
# test: chemical recovery into PDMS from spiked human plasma; higher = better extraction
# conditionsUsed: pooled human plasma; extraction method: PES with PDMS; equilibration time (d): 6
Lab note: anything with chemical recovery into PDMS at or over 8% counts as criterion met; the rest go in criterion not met.

These solved cases illustrate the format of a correct answer.
NC(=O)N1c2ccccc2CC(O)c2ccccc21 (stereo not given) [10,11-Dihydro-10-hydroxycarbamazepine] :: criterion not met
Clc1cc(-c2cc(Cl)c(Cl)c(Cl)c2Cl)c(Cl)c(Cl)c1Cl :: criterion met
CC1CCc2cc(F)cc3c(=O)c(C(=O)O)cn1c23 (stereo not given) :: criterion not met

Then there is this compound:
Textbook exercise: given the entry `CC(C)(C)c1ccc(CSc2cnn(C(C)(C)C)c(=O)c2Cl)cc1` , state whether its chemical recovery into PDMS is greater than or equal to 8%. criterion met

----------
# test: chemical recovery into PDMS from spiked human plasma; higher = better extraction
# conditionsUsed: pooled human plasma; extraction method: PES with PDMS; equilibration time (d): 6
endpoint: chemical recovery into PDMS (%)
Just the number in %, nothing appended.

Observe how each entry below is paired with its result.
Clc1ccc(Cl)c(-c2ccccc2Cl)c1 :: 46.5
CCOCCN(C(=O)CCl)C(=C(C)C)c1ccccc1 :: 43.2
CCOP(=S)(OCC)Oc1cc(C)nc(C(C)C)n1 :: 34
CCOP(=O)(OCC)OC(=CCl)c1ccc(Cl)cc1Cl :: 44.1

Consider the additional molecule presented here.
# input molecule: `CC(C)(C)Nc1nc(N)nc(Cl)n1` ; wanted: its chemical recovery into PDMS 42.7

----------
# test: chemical recovery from spiked human plasma; higher = better extraction
# conditionsUsed: pooled human plasma; extraction method: SPE only (HLB 96-well), PES comparison experiment
Recorded chemical recovery values for a group of compounds are listed next.
Hi, when you answer, please include the unit after the number. Thanks!

// worked examples, chemical recovery included
CCCCC(CC)COP(=O)(O)OCC(CC)CCCC (configuration not stated) [Bis(2-ethylhexyl)phosphate] :: 3.88%
CC(=O)[C@@]1(O)CC[C@H]2[C@@H]3CCC4=CC(=O)CC[C@]4(C)[C@H]3CC[C@@]21C [17alpha-Hydroxyprogesterone] :: 51.1%
Cn1c(=O)c2[nH]cnc2n(C)c1=O [Theophyllin] :: 95.7%

Suppose we examine the compound c1ccc(Nc2cccc3ccccc23)cc1 [N-Phenyl-1-naphthylamine] ; what chemical recovery value has been reported? 18.7%

I have this compound here, CC(C)COP(=O)(OCC(C)C)OCC(C)C [Tri-isobutylphosphate] , and I need its recorded chemical recovery. 31.3%

Using the record for O=C(NC(=O)c1c(F)cccc1F)Nc1ccc(Oc2ccc(C(F)(F)F)cc2Cl)cc1F [Flufenoxuron] , report its chemical recovery. 24%

Dear colleague, I am looking for the recorded chemical recovery of the following compound: C#C[C@]1(O)C=C[C@H]2[C@@H]3CCC4=CC(=O)CC[C@@H]4[C@H]3CC[C@@]21CC [Gestoden] 47%

Item under review: CCCCCCCCCCCC[N+](C)(C)[O-] [N,N-Dimethyldodecylamine N-oxide] . Reported chemical recovery? 43.2%

Returns the measured chemical recovery for the input compound. Input: O=C(CC(C(=O)OC1CCCCC1)S(=O)(=O)O)OC1CCCCC1 (configuration not stated) [Dicyclohexyl sulfosuccinate] 37.1%

Please give the measured chemical recovery for this compound: O=C(Nc1ccc(F)cc1F)c1cccnc1Oc1cccc(C(F)(F)F)c1 [Diflufenican] 35.6%

May I ask what chemical recovery has been recorded for COCCN(C(=O)CCl)c1c(C)cccc1C [Dimethachlor] ? 47.8%

Which chemical recovery value belongs to CC(C)(Oc1ccc(Cl)cc1)C(=O)O [Clofibric acid] ? 61%

----------
# test: chemical recovery from spiked human plasma; higher = better extraction
# conditionsUsed: pooled human plasma; extraction method: PES+SPE (3 d PDMS equilibration then HLB SPE)
endpoint: chemical recovery (%)
Express the result in % but write the number alone.

Which measured chemical recovery value corresponds to CC1CCc2cc(F)cc3c(=O)c(C(=O)O)cn1c23 (stereo unspecified) ? 44.1

Looking for the measured chemical recovery of CCOC(=O)c1ccc(N(C)C)cc1 [Ethyl 4-(dimethylamino)benzoate] , can you help? 25.6

Which chemical recovery value is on record for CCOP(=S)(OCC)SCSCC [Phorate] ? 0.327

# chemical recovery lookup, item `Nc1nc(N)nc(NC2CC2)n1` 3.13

Tell me the measured chemical recovery of COc1cc(NC(=O)CC(C)=O)c(OC)cc1Cl [4'-Chloro-2',5'-dimethoxyacetoacetanilide] , please. 21.7

Query (compound): `Cc1cc(C)nc(Nc2ccccc2)n1` ; field requested: chemical recovery 51.1

----------
# test: chemical recovery from spiked human plasma; higher = better extraction
# conditionsUsed: pooled human plasma; extraction method: solvent precipitation (ACN + hexane)
endpoint: chemical recovery (%)
Number in %, nothing else.

CC1(C)C(=O)NC(=O)NC1=O :: 39.8
CC(C)(C)c1cc(CCC(=O)NCCCCCCNC(=O)CCc2cc(C(C)(C)C)c(O)c(C(C)(C)C)c2)cc(C(C)(C)C)c1O :: 55.3
CC=CC(=O)N(CC)c1ccccc1C :: 56.3

Look up chemical recovery: `CCNc1nc(NC(C)(C)C)nc(SC)n1` 68.8

Name the recorded chemical recovery for `CCCN(CCC)C(=O)SCc1ccccc1` . 72.6

Request the reported chemical recovery associated with `CCNc1nc(NC(C)C)nc(SC)n1` 72.1

// chemical recovery lookup, key: `CC[C@H]1OC(=O)[C@H](C)[C@@H](O[C@H]2C[C@@](C)(OC)[C@@H](O)[C@H](C)O2)[C@H](C)[C@@H](O[C@@H]2O[C@H](C)C[C@H](N(C)C)[C@H]2O)[C@](C)(OC)C[C@@H](C)C(=O)[C@H](C)[C@@H](O)[C@]1(C)O` 69.1

Endpoint output: chemical recovery of `Cc1cccc(Nc2ccccc2C(=O)O)c1C` . Value? 54.2

Entry under review: CC(C1=C(CCN(C)C)Cc2ccccc21)c1ccccn1 (stereo not drawn) . Reported chemical recovery? 58.5

What chemical recovery value was documented for this molecule, `Nc1ccccc1-c1ccccc1` ? 2.86

Field request: chemical recovery | item: `O=S(=O)(O)CCC(F)(F)C(F)(F)C(F)(F)C(F)(F)C(F)(F)C(F)(F)F` 75.6

Bench note: what chemical recovery did `COc1cc(-c2ccc(N)c(OC)c2)ccc1N` show? 46.7

For CCNC(=O)c1cccc(C)c1 [N-Ethyl-3-methylbenzamide] , what is its reported chemical recovery? 57.5

What value of chemical recovery has been recorded for this entry: `CCNc1nc(Cl)nc(NC(C)(C)C)n1` 69.5

Value lookup for chemical recovery; key = `CN(C)C(=O)NC1CCCCC1` 61.2

I would be grateful if you could share the reported chemical recovery for `CN1COCN(Cc2cnc(Cl)s2)/C1=N\[N+](=O)[O-]` . 73

I am curious: what chemical recovery value has been reported for NC(=O)N1c2ccccc2CC(O)c2ccccc21 (stereo not drawn) [10,11-Dihydro-10-hydroxycarbamazepine] ? 71.1

Could you tell me which chemical recovery is on file for Fc1ccc([C@]2(Cn3cncn3)O[C@H]2c2ccccc2Cl)cc1 (racemic) ? 73.6

----------
# test: chemical recovery from spiked human plasma; higher = better extraction
# conditionsUsed: pooled human plasma; extraction method: SPE only (HLB 96-well)
Rule: chemical recovery of 30% or more gives criterion met; anything lower gives criterion not met.

CCN(CC)CC(=O)Nc1c(C)cccc1C :: criterion met
CC(C)Nc1nc(N)nc(Cl)n1 :: criterion met
C#CC(C)(C)NC(=O)c1cc(Cl)cc(Cl)c1 [Propyzamide] :: criterion met
CN(C)C(=N)NC(=N)N :: criterion not met
Nc1ccc(Sc2ccc(N)cc2)cc1 :: criterion not met

Please indicate if the recorded chemical recovery for `c1ccc2c(c1)[nH]c1ncccc12` meets or exceeds 30%. criterion met

Test whether the compound `COc1ccc(C(c2ccc(OC)cc2)C(Cl)Cl)cc1` records chemical recovery of 30% or higher. criterion not met

API: above_or_equal(metric=chemical recovery, cutoff=30%) for item CCOC(=O)C1=C(C)NC(C)=C(C(=O)OC)C1c1cccc([N+](=O)[O-])c1 (centres undefined) criterion met

Could you please find out whether `O=S(=O)(O)C(F)(F)C(F)(F)C(F)(F)C(F)(F)C(F)(F)C(F)(F)C(F)(F)C(F)(F)F` has chemical recovery that meets 30% or exceeds it? criterion not met

Taken from the supplement of paper PMC10702517.
